FYI, the data here is from ChEMBL document CHEMBL1140325.

target: 3-beta-hydroxysteroid-Delta(8),Delta(7)-isomerase (Homo sapiens, UniProt Q15125); experiment: Affinity for human EMP expressed in ERG2 deficient strain of Saccharomyces cerevisiae using [3H]ifenprodil or (+)-[3H]pentazocine as radioligand
Sequence (Q15125 whole entry): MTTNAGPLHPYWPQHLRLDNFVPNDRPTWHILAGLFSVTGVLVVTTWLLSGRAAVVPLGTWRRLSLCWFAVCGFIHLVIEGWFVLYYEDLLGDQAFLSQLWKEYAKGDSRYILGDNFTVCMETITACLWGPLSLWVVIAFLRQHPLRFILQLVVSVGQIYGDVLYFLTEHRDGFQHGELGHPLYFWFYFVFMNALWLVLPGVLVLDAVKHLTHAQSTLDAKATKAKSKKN
REPORTED METRIC: Ki (nM)

                  compound_structure_string  value_unit  value_relation_sign  test_result
0    OCCN1CCN(CCCN2c3ccccc3C=Cc3ccccc32)CC1          nM                    =           13
1  C[C@]12CC[C@H]3[C@@H](CCC4=CC(=O)CC[C@@]43C)[C@@H]1CC[C@@H]2O          nM                    >       100000
2  C[C@]12C[C@H](O)[C@H]3[C@@H](CCC4=CC(=O)CC[C@@]43C)[C@@H]1CC[C@@H]2C(=O)CO          nM                    >       100000
3  CCN(C/C=C/c1ccc(C2CCCCC2)c(Cl)c1)C1CCCCC1          nM                    =            3
